- Tested on: SN12C renal
- PROTOCOL_NOTES: NCI tumour cell line growth inhibition, 48 h

>  <COMPOUND>
Cc1[nH]n(-c2cccc(Cl)c2)c(=O)c1/C=C1\C=c2ccccc2=CC1=O

>  <GI50>
> 100 µM

$$$$
>  <COMPOUND>
O=C(CSc1ncc(-c2ccccc2)n1-c1ccccc1)Nc1ccc(-c2nc3ccccc3s2)cc1

>  <GI50>
71.5 µM

$$$$
>  <COMPOUND>
CCN(CCO)CCCOc1ccc2c(Nc3cc(CC(=O)Nc4cccc(F)c4)[nH]n3)ncnc2c1

>  <GI50>
19.8 µM

$$$$
>  <COMPOUND>
Cc1cc(N)cc(C)c1-c1c(Br)cc(N)cc1Br

>  <GI50>
6.05 µM

$$$$
>  <COMPOUND>
O=C1N=C(Nc2nc(-c3csc(NC4=NC(=O)/C(=C\c5ccc(Cl)cc5)S4)n3)cs2)S/C1=C/c1ccc(Cl)cc1

>  <GI50>
7.85 µM

$$$$
>  <COMPOUND>
C[C@H](c1ccccc1)N(CCC(=O)O)C(=O)CCN(C(=O)CCN(C(=O)CCN[C@H](C)c1ccccc1)[C@H](C)c1ccccc1)[C@H](C)c1ccccc1

>  <GI50>
> 100 µM

$$$$
>  <COMPOUND>
Cc1cc(C#Cc2ccccc2)ccc1-n1c(/C=C/c2cc(O)ccc2O)nc2ccccc2c1=O

>  <GI50>
1.62 µM

$$$$
>  <COMPOUND>
N#Cc1c(N)c(C#N)c2c(c1-c1ccc(Cl)cc1)COc1ccc(F)cc1-2

>  <GI50>
> 50 µM

$$$$
>  <COMPOUND>
N=C1/C(=C2\Nc3ccccc3S2)CC(=O)N1c1ccc(SC(F)F)cc1

>  <GI50>
> 100 µM

$$$$
>  <COMPOUND>
CC1COCCN1CC#CCOC(=O)c1cc2ccccc2oc1=O (stereo not given)

>  <GI50>
> 100 µM

$$$$

* * *

Overview of recorded TGI for various compounds
- Test system: IGROV1 ovarian
- PROTOCOL_NOTES: NCI tumour cell line growth inhibition, 48 h
QUANTITY_KIND: TGI (µM)

>  <COMPOUND>
CCc1ccc(/C=C/C(=O)C2CN(CC)CCC2(O)/C=C/c2ccc(CC)cc2)cc1 (stereo not given)

>  <MODIFIER_SIGN>
=

>  <MEASURED_VALUE>
4.35

$$$$
>  <COMPOUND>
O=c1c2cc(S(=O)(=O)Nc3ccc(Cl)cc3Cl)ccc2ncn1NS(=O)(=O)c1cccc2ccccc12

>  <MODIFIER_SIGN>
>

>  <MEASURED_VALUE>
100

$$$$
>  <COMPOUND>
COc1ccc2c(c1)C(=O)c1c-2c(N2CCN(C(=O)CCNCCNCCO)CC2)nc2ccccc12

>  <MODIFIER_SIGN>
=

>  <MEASURED_VALUE>
45.2

$$$$
>  <COMPOUND>
O=C(CSc1nc2ccc(I)cc2c(=O)n1Cc1ccccc1)NN1C(=O)c2ccccc2C1=O

>  <MODIFIER_SIGN>
=

>  <MEASURED_VALUE>
64.2

$$$$
>  <COMPOUND>
CSc1nc(Br)nc2ncn(C3CC(Oc4ccc(C)cc4)C(COc4ccc(C)cc4)O3)c12 (stereo not given)

>  <MODIFIER_SIGN>
>

>  <MEASURED_VALUE>
100

$$$$
